molecular target: IDH1 R132H (Homo sapiens, UniProt O75874, R132H); assay: IDH1 R132H enzymatic assay (NADPH depletion coupled to diaphorase/resazurin); format: biochemical; settings: IDH1 R132H enzymatic inhibition, IC50 class
Sequence (O75874 whole entry R132H): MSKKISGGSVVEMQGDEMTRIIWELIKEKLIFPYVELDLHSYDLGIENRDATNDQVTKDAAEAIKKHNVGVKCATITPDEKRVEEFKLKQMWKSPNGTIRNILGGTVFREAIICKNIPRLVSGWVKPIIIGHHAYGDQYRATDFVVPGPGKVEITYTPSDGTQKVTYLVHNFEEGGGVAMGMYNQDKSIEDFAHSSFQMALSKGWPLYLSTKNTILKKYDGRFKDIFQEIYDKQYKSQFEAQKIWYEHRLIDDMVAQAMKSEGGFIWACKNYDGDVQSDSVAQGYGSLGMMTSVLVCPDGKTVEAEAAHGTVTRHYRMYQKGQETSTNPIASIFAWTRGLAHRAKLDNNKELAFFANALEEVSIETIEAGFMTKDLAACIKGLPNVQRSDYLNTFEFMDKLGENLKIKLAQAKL
Parameter Measured: IC50

Consider the worked cases shown below.
Mol Smiles: Cc1ccc(C(=O)O)cc1-n1c2c(cc(-c3nc(-c4ccc(Cl)cc4)cs3)c1=O)C(=O)CC(C)(C)C2
Observed: > 20000 nM
--
Mol Smiles: CCc1cccc(CC)c1-n1c(C)c(C(=O)NC2CC2)cc(-c2nc(-c3ccc(Cl)cc3)cs2)c1=O
Observed: 1000 to 5000 nM
--
Mol Smiles: CC(C)=Cc1c(C(=O)N2CCNCC2)cc(-c2nc(-c3ccc(Cl)cc3)cs2)c(=O)n1-c1cc(C)ccc1Cl
Observed: < 300 nM
--
Mol Smiles: CCc1cccc(CC)c1-n1c(C=C(C)C)c(C(=O)N2CCNCC2)cc(-c2ccn(-c3ccc(Cl)cc3)n2)c1=O
Observed: < 300 nM
--
Mol Smiles: COc1cccc(F)c1-n1c2c(cc(-c3nc(-c4ccc(Cl)cc4)cs3)c1=O)C(=O)CC(C)(C)C2
Observed: 1000 to 5000 nM
--
Mol Smiles: CCc1cccc(CC)c1-n1c(C(C)C)c(C(=O)N2CCN[C@@H](C)C2)cc(-c2nc(-c3ccc(Cl)cc3)cs2)c1=O
Observed: 1000 to 5000 nM

So, COc1ccc(-c2csc(-c3cc4c(n(-c5ccccc5C(F)(F)F)c3=O)CC(C)(C)CC4=O)n2)cc1 ? Its IC50 was 1000 to 5000 nM
